# Tested on: UO-31 renal
# procedure summary: NCI tumour cell line growth inhibition, 48 h
Use yes when the recorded TGI is no lower than 20 µM; use no when it is lower.

Worked set:
INSERT INTO assay_data (compound, assigned_class) VALUES
  ('CC/C(=C(/CC)c1ccc(OP(=O)([O-])[O-])cc1)c1ccc(OP(=O)([O-])[O-])cc1.N.N.N.N.[Pt+4].[Pt+4]', 'yes'),
  ('O=C(Nc1ccc(-n2cc(-c3ccncc3)c(-c3ccc(O)c(Cl)c3)n2)cc1)c1ccc(Cl)c(Cl)c1', 'yes'),
  ('N=C(N)c1ccc(-c2ccc(-c3ccccc3)o2)cc1', 'no'),
  ('COc1cccc(C2C3=C(COC3=O)N(CCO)c3cc4c(cc32)CCC4)c1 (centres undefined)', 'no');

# input Quick check, TGI >= 20 µM? "CCC/C(Cl)=N/OC(=O)Nc1cccc(F)c1"
# output yes

# input hey, is TGI for this one >= 20 µM? "C[CH2][Sn]([CH2]C)([O]C(=O)c1cc(OC)c(OC)c(OC)c1)[O][Sn]([CH2]C)([CH2]C)[O]C(=O)c1cc(OC)c(OC)c(OC)c1"
# output yes

# input Quick check, TGI >= 20 µM? "Cc1cc2c(C)nn(Cc3ccc(Cl)cc3Cl)c2c(C#N)c1C"
# output yes

# input I'd appreciate it if you could say whether "CN(C)c1ccc(N=C(C#N)c2nc(N)nc(N3CCOCC3)n2)cc1" has TGI at least equal to 20 µM.
# output yes
